- system.name: Human STING (Homo sapiens, UniProt Q86WV6, G230A/H232R/R293Q/R71H)
- Sequence (Q86WV6 whole entry R71H/G230A/H232R/R293Q): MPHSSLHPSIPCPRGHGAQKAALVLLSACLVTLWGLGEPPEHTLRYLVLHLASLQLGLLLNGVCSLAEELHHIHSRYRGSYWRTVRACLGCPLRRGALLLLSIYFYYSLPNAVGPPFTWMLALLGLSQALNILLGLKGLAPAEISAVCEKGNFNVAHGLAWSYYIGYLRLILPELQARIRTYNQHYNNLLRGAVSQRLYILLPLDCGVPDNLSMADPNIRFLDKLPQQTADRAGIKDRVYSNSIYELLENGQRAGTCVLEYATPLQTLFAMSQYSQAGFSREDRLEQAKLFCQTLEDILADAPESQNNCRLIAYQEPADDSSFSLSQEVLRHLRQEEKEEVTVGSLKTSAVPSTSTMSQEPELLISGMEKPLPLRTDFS
- test.method.notes: Reporter gene assay, human STING agonist activity, THP1-Dual cells (HAQ-mutated), IRF pathway
- settings: THP1-Dual cells IRF EC50, THP1-Dual cells (HAQ-mutated), 24 hours; 100% = maximum count with ML-RR-CDA·2Na+
What log10 of EC50 was measured for each of the following?
Please note: log10 values; quantity EC50; unit nM.

[Q] Give log10 of EC50 for Nc1ncnc2c1ncn2[C@@H]1O[C@@H]2COP(=O)(S)O[C@H]3[C@@H](O)[C@H](n4cc5c6c(ncnc64)NCCC5)O[C@@H]3COP(=O)(S)O[C@@H]1[C@@H]2O (single isomer, unassigned) [1a]
[A] 3.77

[Q] Give log10 of EC50 for NCCNc1nc(N)c2ncn([C@@H]3O[C@@H]4COP(=O)(S)O[C@H]5[C@@H](F)[C@H](n6cc7c8c(ncnc86)SCCC7)O[C@@H]5COP(=O)(S)O[C@@H]3[C@@H]4F)c2n1 (single isomer, unassigned) [51b]
[A] 2.63

[Q] Give log10 of EC50 for NCCNc1nc(N)c2ncn([C@@H]3O[C@@H]4COP(=O)(S)O[C@H]5[C@@H](O)[C@H](n6cc7c8c(ncnc86)NCCC7)O[C@@H]5COP(=O)(S)O[C@@H]3[C@@H]4O)c2n1 (single isomer, unassigned) [8a]
[A] 3.49

[Q] Give log10 of EC50 for Nc1ncnc2c1ncn2[C@@H]1O[C@@H]2COP(=O)(S)O[C@H]3[C@@H](O)[C@H](n4cc5c6c(ncnc64)NCCC5)O[C@@H]3COP(=O)(S)O[C@@H]1[C@@H]2O (some centres unmarked) [47a]
[A] 2.76

[Q] Give log10 of EC50 for NCCn1cnc2c(ncn2[C@@H]2O[C@@H]3COP(=O)(S)O[C@H]4[C@@H](F)[C@H](n5cc6c7c(ncnc75)NCCC6)O[C@@H]4COP(=O)(S)O[C@@H]2[C@@H]3O)c1=O (single isomer, unassigned) [35b]
[A] 3.53

[Q] Give log10 of EC50 for O=c1c2ncn([C@@H]3O[C@@H]4COP(=O)(S)O[C@H]5[C@@H](O)[C@H](n6cc7c8c(ncnc86)NCCC7)O[C@@H]5COP(=O)(S)O[C@@H]3C4)c2ncn1CCO (single isomer, unassigned) [38b]
[A] 3.20

[Q] Give log10 of EC50 for O=c1c2ncn([C@@H]3O[C@@H]4COP(=O)(S)O[C@H]5[C@@H](O)[C@H](n6cc7c8c(ncnc86)NCCC7)O[C@@H]5COP(=O)(S)O[C@@H]3[C@@H]4F)c2ncn1CCO (single isomer, unassigned) [39b]
[A] 2.61

[Q] Give log10 of EC50 for NCCn1cnc2c(ncn2[C@@H]2O[C@@H]3COP(=O)(S)O[C@H]4[C@@H](F)[C@H](n5cc6c7c(ncnc75)SCCC6)O[C@@H]4COP(=O)(S)O[C@@H]2[C@@H]3O)c1=O (single isomer, unassigned) [49a]
[A] 2.52
